System: SK-MEL-28 melanoma
protocol.summary: NCI tumour cell line growth inhibition, 48 h
property.name: TGI

Below, each entry is followed by its recorded TGI result.
>  <compound>
O=C(Nc1ccc(-n2ccc3c(NC(=O)c4ccccc4)nccc32)cc1)c1ccc(Cl)c(C(F)(F)F)c1

>  <property.name>
TGI

>  <result>
14.1 µM

$$$$
>  <compound>
COc1ccc(C2CC(c3c(O)ccc4ccccc34)=NN2C(C)=O)cc1OC (centres undefined)

>  <property.name>
TGI

>  <result>
> 100 µM

$$$$
>  <compound>
O=C1C=CC(=O)c2c1ccc1c3ccccc3n(CCCCCCCCCCCCn3c4ccccc4c4ccc5c(c43)C(=O)C=CC5=O)c21

>  <property.name>
TGI

>  <result>
> 100 µM

$$$$

I looked up CC[C@@H]1CC[C@@H]2[C@H](CC[C@]3(C)[C@@H](OC(C)=O)CC[C@@H]23)[C@H]1COC(C)=O and its TGI for SK-MEL-28 melanoma was > 100 µM

I looked up CCOC1Oc2ccccc2C(=O)/C1=C/Nc1ccc(C(C)=O)cc1 (centres undefined) and its TGI for SK-MEL-28 melanoma was > 100 µM

###

// GI50 lookup, one value per entry
System: MCF7 breast
protocol.summary: NCI tumour cell line growth inhibition, 48 h

>  <compound>
OCCN(CCO)c1ncnc2c1ncn2Cc1ccc(CCl)cc1

>  <property.name>
GI50

>  <result>
6300 nM

$$$$
>  <compound>
O=C(Nc1ccc(F)cc1)Nc1ccc(Cl)c([N+](=O)[O-])c1

>  <property.name>
GI50

>  <result>
2660 nM

$$$$

We now examine a further compound.
The value of GI50 measured for the compound CN1CCCCC1CCN1c2ccccc2Sc2ccc(Cl)cc21 (stereo not drawn) turned out to be 2680 nM

###

Test system: HCT-116 colon
protocol.summary: NCI tumour cell line growth inhibition, 48 h
property.name: TGI

I looked up c1csc(-c2ccc(-c3cccc4nsnc34)s2)c1 and its TGI for HCT-116 colon was > 100 µM

I looked up COc1cc2ccnc([C@@H](OC(=O)c3ccccc3)c3ccc(OC)c(OC)c3OC)c2cc1OC and its TGI for HCT-116 colon was > 100 µM

I looked up NC(=O)NCCCC(NC(=O)OCCCCn1ccc(=O)[nH]c1=O)C(=O)O (stereo not given) and its TGI for HCT-116 colon was > 100 µM

I looked up COc1cc2c(cc1OCCCCN1CCN(CC(=O)Nc3ccc(Cl)cc3C(=O)c3ccccc3Cl)CC1)N=CC1CCCN1C2=O (stereo not given) and its TGI for HCT-116 colon was 0.664 µM

I looked up C[N+](C)(C)CC(=O)N/N=C(/CC(=O)CC(C1=C(O)c2ccccc2OC1)c1ccccc1)C(=O)Nc1cccc(Cl)c1 (stereo not given) and its TGI for HCT-116 colon was > 100 µM

I looked up COC(=O)c1ccccc1CC1Cc2ccc3c(c2C1=O)CCCC3 (stereo not given) and its TGI for HCT-116 colon was > 100 µM

I looked up c1ccc(N=c2sc3ccccc3nc2Nc2ccccc2)cc1 and its TGI for HCT-116 colon was > 100 µM

###

Tested on: HOP-62 NSCLC
protocol.summary: NCI tumour cell line growth inhibition, 48 h
property.name: TGI

>  <compound>
CC(=O)O[C@@H]1[C@H](C(C)C)[C@@H](OC(C)=O)C/C(C)=C/CC[C@]2(C)O[C@@H]12

>  <result>
> 100 µM

$$$$
>  <compound>
O=C1/C(=C\c2ccccc2)C(NC2CCCCC2)c2ccccc21 (centres undefined)

>  <result>
7.21 µM

$$$$
>  <compound>
CCOC(=O)c1csc(NC(=O)CN2CCOCC2)n1

>  <result>
> 100 µM

$$$$
>  <compound>
O=C1c2ccccc2-c2c1c1ccccc1c(=O)n2CCNCCNCCNCCn1c2c(c3ccccc3c1=O)C(=O)c1ccccc1-2

>  <result>
2.45 µM

$$$$
>  <compound>
COc1cc(/C=N\NC(=O)CN2CCN(c3cc4c(cc3F)c(=O)c(C(=O)N/N=C/c3cc(OC)c(OC)c(OC)c3)cn4C3CC3)CC2)cc(OC)c1OC

>  <result>
21 µM

$$$$

We now examine a further compound.
The value of TGI measured for the compound O=[N+]([O-])c1ccc2c(c1)c(OCc1ccccc1)nn2Cc1ccccc1 turned out to be > 100 µM

###

Tested on: MALME-3M melanoma
protocol.summary: NCI tumour cell line growth inhibition, 48 h
// TGI lookup, one value per entry

Below, each entry is followed by its recorded TGI result.
>  <molecule>
COc1cccc(C2c3cc4c(cc3OC(C)(N3CCCC3)C2C)OCO4)c1O (configuration not stated)

>  <TGI>
42.3 µM

$$$$
>  <molecule>
CC1(C)N=[N+]([O-])C1(C)C

>  <TGI>
> 100 µM

$$$$
>  <molecule>
CC(C)(C)N1CSC(=S)N(Cc2ccco2)C1

>  <TGI>
16.6 µM

$$$$
>  <molecule>
Nc1ccccc1S(=O)(=O)N(CC(=O)O)c1ccccc1

>  <TGI>
> 100 µM

$$$$
>  <molecule>
O=C1CC(NC(=O)C(F)(F)F)c2c(Br)sc(N3CCNCC3)c21 (configuration not stated)

>  <TGI>
> 100 µM

$$$$

The value of TGI measured for the molecule CO/C(=N\N=C\c1ccc(C(F)(F)F)cc1)c1ccncc1 turned out to be > 10 µM

The value of TGI measured for the molecule CC[C@@H]1CC[C@@H]2[C@H](CC[C@]3(C)[C@@H](OC(C)=O)CC[C@@H]23)[C@H]1COC(C)=O turned out to be 35.8 µM

The value of TGI measured for the molecule O=C(Nc1nc2ccc([N+](=O)[O-])cc2s1)C(=O)C(C1OC(=O)c2ccccc21)[N+](=O)[O-] (configuration not stated) turned out to be > 100 µM

The value of TGI measured for the molecule [N-]=[N+]=NC[C@H]1OCO[C@H](CN=[N+]=[N-])[C@@H](OCCOCCCl)[C@@H]1OCCOCCCl turned out to be > 100 µM

The value of TGI measured for the molecule CCOC(=O)C1(C/C=C/CBr)Cc2ccccc2C1=O (configuration not stated) turned out to be 7.43 µM

###

// TGI lookup, one value per entry
Test system: COLO 205 colon
protocol.summary: NCI tumour cell line growth inhibition, 48 h
Use µM as the unit, but write only the number.

Below, each entry is followed by its recorded TGI result.
>  <compound>
CC(=O)OC1OC([C@@H]2c3cccc(O)c3C(=O)c3c(O)cc(C)cc32)C(O)C(O)C1O (stereo not given in full)

>  <target.or.system>
COLO 205 colon

>  <TGI (µM)>
2.68

$$$$
>  <compound>
Cc1ccc2c(C)c3c(ccc4ccccc43)c[n+]2c1

>  <target.or.system>
COLO 205 colon

>  <TGI (µM)>
24.7

$$$$
>  <compound>
Cc1ccc(NC(=O)Nc2ccc(-c3cccnc3)cc2N2CCC(CO)CC2)cc1

>  <target.or.system>
COLO 205 colon

>  <TGI (µM)>
11.1

$$$$
>  <compound>
COc1cccc(C2c3cc4c(cc3OC(C)(N3CCCC3)C2C)OCO4)c1O (stereo not given)

>  <target.or.system>
COLO 205 colon

>  <TGI (µM)>
10.4

$$$$

We now examine a further compound.
The value of TGI measured for the compound C1=C2/CC[C@H](Sc3ccccc3)C2C2(CCCCC/1)OCCO2 (stereo not given in full) turned out to be 37.8

###

// log10(TGI) lookup, one value per entry
Test system: MOLT-4 leukemia
protocol.summary: NCI tumour cell line growth inhibition, 48 h
Where a SMILES comes first, the peptide text is derived from it. [ ]: non-standard residue; d: D form. The star is where a group is joined. NMeAc5c = CNC1(C(=O)O)CCCC1; Boc = CC(C)(C)OC(=O)*; OBn = c1ccc(CO*)cc1
Heads up: the numbers are on a log10 scale; they represent TGI in µM.

Below, each entry is followed by its recorded log10(TGI) result.
>  <compound>
CN(C(=O)C(Cc1ccccc1)NC(=O)OC(C)(C)C)C1(C(=O)NC(Cc2ccccc2)C(=O)OCc2ccccc2)CCCC1 (stereo not drawn) (Boc-Phe-[NMeAc5c]-Phe-OBn; configuration not given here)

>  <log10(TGI)>
1.93

$$$$
>  <compound>
CCOC(=O)C1(C/C=C/CBr)Cc2ccccc2C1=O (stereo unspecified)

>  <log10(TGI)>
0.92

$$$$
>  <compound>
COC(=O)c1ccccc1CC1Cc2ccc3c(c2C1=O)CCCC3 (stereo unspecified)

>  <log10(TGI)>
1.67

$$$$
>  <compound>
COc1cnc2c(c1)C(=O)c1c-2n(CCCN2CCOCC2)c(=O)c2cc(F)ccc12

>  <log10(TGI)>
-0.20

$$$$
>  <compound>
CN1CCCCC1CCN1c2ccccc2Sc2ccc(Cl)cc21 (stereo unspecified)

>  <log10(TGI)>
1.01

$$$$
>  <compound>
C=C(C)C(=O)OC1C/C(CO)=C\C(O)C/C(C)=C/C2OC(=O)C(=C)C21 (stereo unspecified)

>  <log10(TGI)>
1.75

$$$$

The value of log10(TGI) measured for the compound Nc1ccccc1C#C/C=C\C#Cc1ccccc1OC(F)(F)F turned out to be 1.38

The value of log10(TGI) measured for the compound COC(=O)C1SC(SC)=NC12c1ccccc1Nc1ccccc12 (stereo unspecified) turned out to be 1.85

Numbers sourced from PubChem BioAssay (NCI).
